reverse-splicing fitness reference
B1: Azoarcus group I ribozyme (parent)
chain: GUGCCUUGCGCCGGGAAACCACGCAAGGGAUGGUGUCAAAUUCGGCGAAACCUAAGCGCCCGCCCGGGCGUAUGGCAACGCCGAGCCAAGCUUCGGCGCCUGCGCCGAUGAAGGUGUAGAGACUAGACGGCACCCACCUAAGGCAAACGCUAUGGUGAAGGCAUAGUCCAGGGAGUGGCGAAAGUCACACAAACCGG

# Variants of: B1
# TEST DETAILS: reverse-splicing fitness (ratio to wild type); higher = more active; in vitro selection; Mg2+ level not given
Lab note: record the figure alone, no unit after it.

Worked cases, answers included:
MUTATION STRING | REPORTED RESULT
C82U A111C A120C A145G C169U U176C | 0.0159
A111U A145G C150A C169U U176A | 0.0173
C82A A111C A120C A145G C150A C169A U176C | 0.019
C82A A145U C169U | 0.0136
A111C A120U A145U C150G C169A U176C | 0.0035
C82U A111C A120U A145G C150A U176C | 0.00717
C82U A120U C150A C169U U176A | 0.00411
C82U A111C A120C A145U C169G | 0.00753

The record that follows has no reverse-splicing fitness shown yet.
State its reverse-splicing fitness for this variant: C82G A120U A145C C169G
0.00562
